# Assay explanation: Ratio of drug level in rat brain to plasma at 10 mg/kg, iv at 2 hrs
# Format: ADME, organism-based
# Condition context: brain and plasma, read-out: BPR
Measured parameter: Kp at 2 h

CC(C)Cc1cc(CNC(=O)C2C3CN(C(=O)c4ccccc4)CC32)nn1-c1ccccc1 (stereo unspecified): 0.29

----------
# Tested on: CYP2C19 (Homo sapiens)
# Sequence (P33261 whole entry): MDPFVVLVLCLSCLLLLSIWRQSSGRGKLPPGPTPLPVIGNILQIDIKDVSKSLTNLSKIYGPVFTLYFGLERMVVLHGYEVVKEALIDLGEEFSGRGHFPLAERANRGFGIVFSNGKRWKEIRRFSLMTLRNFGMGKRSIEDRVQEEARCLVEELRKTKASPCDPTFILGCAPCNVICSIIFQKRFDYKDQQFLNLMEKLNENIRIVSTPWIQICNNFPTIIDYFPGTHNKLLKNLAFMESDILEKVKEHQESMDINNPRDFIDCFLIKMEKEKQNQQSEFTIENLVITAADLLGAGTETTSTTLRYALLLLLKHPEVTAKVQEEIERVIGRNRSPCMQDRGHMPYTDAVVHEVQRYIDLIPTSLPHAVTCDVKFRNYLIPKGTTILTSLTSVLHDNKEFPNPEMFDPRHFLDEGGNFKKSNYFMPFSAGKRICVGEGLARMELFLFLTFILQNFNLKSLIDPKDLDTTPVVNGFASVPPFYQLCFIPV
# Assay explanation: Inhibition of human CYP2C19 expressed in baculosomes assessed as remaining activity using fluorogenic substrate after 15 mins in presence of NADPH by fluorescence assay
# Assay type: ADME
# Design: concentration or dose not given beside the values
# Condition context: recombinant human CYP2C19 in baculosomes, probe fluorogenic substrate, read-out: Activity
Readings of activity at 0.25 h for the listed compounds
Measured parameter: activity at 0.25 h (%)

CN(CCCc1nc2ccccc2[nH]1)C(=O)C1C2CN(CCc3ccc(C(F)(F)F)cc3)CC21 (stereo unspecified): 42.3
CC(C)Cc1cc(CNC(=O)C2C3CN(C(=O)c4ccccc4)CC32)nn1-c1ccccc1 (stereo unspecified): 60.8
CC(C)Cc1cc(CNC(=O)C2C3CN(Cc4ccccc4)CC32)nn1-c1ccccc1 (stereo unspecified): 30.3
CC(C)Cc1cc(CNC(=O)C2C3CN(CCC(C)(C)C)CC32)nn1-c1ccccc1 (stereo unspecified): 101
CC(C)Cc1cc(CNC(=O)C2C3CN(C(=O)Cc4ccccc4)CC32)nn1-c1ccccc1 (stereo unspecified): 65.5
CC(C)Cc1cc(C(=O)NCC2C3CN(CCC(C)(C)C)CC23)nn1-c1ccccc1 (stereo unspecified): 84.2

Values from ChEMBL document CHEMBL4428088
